System: LOX IMVI melanoma
Assay: NCI tumour cell line growth inhibition, 48 h; in the data active means GI50 below about 0.43 µM; inactive means the rest
Field 'call' accepts label 1 = active, label 0 = inactive

| compound | assigned_class |
| --- | --- |
| Cc1nn(-c2ccccc2)c2c1C1C(=C(c3ccc(Cl)cc3)N2)C(=O)Nc2ccccc21 (stereo unspecified) | label 0 |
| CC(=O)[CH-]C(=O)c1ccccc1.CC(=O)[CH-]C(=O)c1ccccc1.[O]=[U+2]=[O] | label 0 |
| CN1C(=O)c2cc(Cl)nc3c(NC(=O)c4cccc(Cl)c4)c(Cl)c(NC(=O)c4cccc(Cl)c4)c1c23 | label 0 |
| N#CC1c2ccccc2-c2ccccc2N1C(=O)c1ccccc1 (stereo unspecified) | label 0 |
| CCCC/C(=N\N=C(N)N)c1ccc(F)cc1 | label 0 |
| O=C1OC(c2ccc(O)cc2)(c2ccc(O)cc2)c2cccc3cccc1c23 | label 0 |
| CC1Cc2c(N(C)C)ncnc2N(C)c2ccc(Cl)cc21 (stereo unspecified) | label 0 |
| Cc1ccc(NCSc2ccc(Cl)cc2)cc1 | label 0 |

What outcome does the record of this test show for COc1ccc(C2=CC(c3cc(OC)c(OC)c(OC)c3)n3ncnc3N2)cc1 (stereo unspecified) ? label 1

Also, O=C(/C=C/N1CCN(c2cccc(C(F)(F)F)c2)CC1)c1ccc(Cl)cc1Cl please. label 0

Also, Cc1ccc([P+](Cc2ccc([N+](=O)[O-])cc2)(c2ccc(C)cc2)c2ccc(C)cc2)cc1 please. label 0

---

System: MDA-N
Test: NCI tumour cell line growth inhibition, 48 h
Where a SMILES comes first, the peptide text is derived from it. [ ]: non-standard residue; d: D form. The star is where a group is joined. ξ: configuration not given here. NMeY = CN[C@@H](Cc1ccc(O)cc1)C(=O)O; Cbz = O=C(OCc1ccccc1)*; ξA = CC(N)C(=O)O
property_measured: TGI

Returns the measured TGI for the input compound. Input: COc1ccc(C[C@@H](C(=O)NCC(N)=O)N(C)C(=O)[C@@H]2CCCN2C(=O)[C@H](CC(C)C)NC(=O)C(C)NC(=O)OCc2ccccc2)cc1 (some centres undefined) (Cbz-[ξA]LP[NMeY](Me)G-NH2) > 100 µM

Also, CC1(CC(=O)O)OC2CCCCCC2O1 (centres undefined) (tested in a mixture with another compound) please. > 100 µM

Also, COc1cc(C2C(Cl)C(=O)N2c2ccc(Br)cc2)cc(I)c1O (centres undefined) please. > 100 µM

Also, COc1ccc(Cn2nc(OCc3ccccn3)c3cc([N+](=O)[O-])ccc32)cc1 please. > 100 µM

---

Measured TGI, listed per entry.
System: SNB-78 CNS
Experiment: NCI tumour cell line growth inhibition, 48 h

Some entries whose results are on file:
| compound | TGI |
| --- | --- |
| CCC1OCCN1C(C)C (stereo not drawn) | > 100 µM |
| CC1=NN(C(=O)CC(=O)Nc2cccc(Cl)c2)C(=O)C1N=Nc1ccc(S(N)(=O)=O)cc1 (stereo not drawn) | > 100 µM |

Returns the measured TGI for the input compound. Input: c1ccc(SCCCC(Sc2ccccc2)Sc2ccccc2)cc1 > 100 µM

---

System: SK-MEL-5 melanoma
Test: NCI tumour cell line growth inhibition, 48 h
property_measured: TGI

Some entries whose results are on file:
| molecule | target_or_system | result |
| --- | --- | --- |
| Oc1c2cccc1Cc1cccc3c1OCCOCCOCCOCCOc1c(cccc1Cc1cccc(c1O)C3)C2 | SK-MEL-5 melanoma | > 100 µM |
| CC[C@@]1(OC(=O)CN)C(=O)OCc2c1cc1n(c2=O)Cc2cc3cc(N)ccc3nc2-1 | SK-MEL-5 melanoma | 0.141 µM |

Returns the measured TGI for the input molecule. Input: CO[C@H]1C=C[C@]23c4cc5c(cc4CN(CC2O)[C@@H]3C1)OCO5 (stereo partly drawn) 17.8 µM
